Can you tell me viability, T/C for the items I'm about to list?
test system: 653999-131-R-J2-PDC complex spheroids, growth inhibition; experiment: Anticancer human tumor 653999-131-R-J2-PDC patient-derived lung adenocarcinoma cell line growth inhibition [RAS]; conditions: second compound 0.1 µM; first compound 0.316 µM; stronger effect = lower value
Numbers only, in %.

Consider the reported viability, T/C for these compounds:
COMPOUND	MEASURED_ENDPOINT	READOUT_UNITS	RESULT_NUMBER
CCN1CCN(Cc2ccc(Nc3ncc(F)c(-c4cc(F)c5nc(C)n(C(C)C)c5c4)n3)nc2)CC1 + C=CC(=O)N1CCN(c2nc(OCC3CCCN3C)nc3c(F)c(-c4nc(N)cc(C)c4C(F)(F)F)c(Cl)cc23)C(C)C1	viability, T/C	%	63
Cc1nc(N2CCC3(CC2)COC(C)C3N)c(CO)nc1Sc1ccnc(N)c1Cl (stereo not drawn) + C=CC(=O)N1CCN(c2nc(OCC3CCCN3C)nc3c(F)c(-c4nc(N)cc(C)c4C(F)(F)F)c(Cl)cc23)C(C)C1	viability, T/C	%	90.2

Recorded viability, T/C for C=CC(=O)Nc1cc(Nc2nccc(-c3cn(C)c4ccccc34)n2)c(OC)cc1N(C)CCN(C)C + C#Cc1c(F)ccc2cc(O)cc(-c3ncc4c(N5CC6CCC(C5)N6)nc(OCC56CCCN5CC(F)C6)nc4c3F)c12 , please?
57.2

###

Can you tell me viability, T/C for the items I'm about to list?
test system: 653999-131-R-J2-PDC complex spheroids, growth inhibition; test: Anticancer human tumor 653999-131-R-J2-PDC cell line growth inhibition [RAS]; details: second compound 0.1 µM; first compound 0.0316 µM; stronger effect = lower value;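 also: spheroids exposed to the agents for seven days before the readout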
One number for each entry, in %.

For every record below, what is its viability, T/C?
1. CC(C)n1nc(-c2ccc3oc(N)nc3c2)c2c(N)ncnc21 + C#Cc1c(F)ccc2cc(O)cc(-c3ncc4c(N5CC6CCC(C5)N6)nc(OCC56CCCN5CC(F)C6)nc4c3F)c12
2. NC1c2ccccc2OC12CCN(c1cnc3c(N4CCCc5ncccc54)n[nH]c3n1)CC2 (stereo not drawn) + C#Cc1c(F)ccc2cc(O)cc(-c3ncc4c(N5CC6CCC(C5)N6)nc(OCC56CCCN5CC(F)C6)nc4c3F)c12
3. CCN1CCN(Cc2ccc(Nc3ncc(F)c(-c4cc(F)c5nc(C)n(C(C)C)c5c4)n3)nc2)CC1 + C#Cc1c(F)ccc2cc(O)cc(-c3ncc4c(N5CC6CCC(C5)N6)nc(OCC56CCCN5CC(F)C6)nc4c3F)c12

28.1
64.5
57.2

###

system: 653999-131-R-J2-PDC complex spheroids, growth inhibition; assay: Anticancer human tumor 653999-131-R-J2-PDC cell line growth inhibition [RAS]; details: second compound 0.0316 µM; first compound 0.00949 µM; stronger effect = lower value;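 also: spheroids exposed to the agents for seven days before the readout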
MEASURED_ENDPOINT: viability, T/C (%)
One number for each entry, in %.

Consider the reported viability, T/C for these compounds:
COMPOUND	MEASURED_ENDPOINT	RESULT_NUMBER
CC1(C)CCC(Nc2ncc(C(F)(F)F)c(-c3c[nH]c4c(P(C)(C)=O)c(C#N)ccc34)n2)CN1 (centres undefined) + C#Cc1c(F)ccc2cc(O)cc(-c3ncc4c(N5CC6CCC(C5)N6)nc(OCC56CCCN5CC(F)C6)nc4c3F)c12	viability, T/C	62.9
CCc1c2c(nc3ccc(O)cc13)-c1cc3c(c(=O)n1C2)COC(=O)[C@]3(O)CC + C=CC(=O)N1CCN(c2nc(OCC3CCCN3C)nc3c(F)c(-c4nc(N)cc(C)c4C(F)(F)F)c(Cl)cc23)C(C)C1	viability, T/C	43.8
CC1(C)CCC(Nc2ncc(C(F)(F)F)c(-c3c[nH]c4c(P(C)(C)=O)c(C#N)ccc34)n2)CN1 (centres undefined) + C=CC(=O)N1CCN(c2nc(OCC3CCCN3C)nc3c(F)c(-c4nc(N)cc(C)c4C(F)(F)F)c(Cl)cc23)C(C)C1	viability, T/C	59.9

We now examine a further compound.
Recorded viability, T/C for CCc1c2c(nc3ccc(O)cc13)-c1cc3c(c(=O)n1C2)COC(=O)[C@]3(O)CC + C#Cc1c(F)ccc2cc(O)cc(-c3ncc4c(N5CC6CCC(C5)N6)nc(OCC56CCCN5CC(F)C6)nc4c3F)c12 , please?
43.6

###

tested on: 653999-131-R-J2-PDC complex spheroids, growth inhibition; test: Anticancer human tumor 653999-131-R-J2-PDC cell line growth inhibition [RAS]; details: second compound 0.00949 µM; first compound 0.316 µM; stronger effect = lower value;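 also: spheroids exposed to the agents for seven days before the readout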
Can you tell me viability, T/C for the items I'm about to list?
Answers are plain numbers, in %.

COMPOUND	MEASURED_ENDPOINT	READOUT_UNITS	RESULT_NUMBER
CCC(CC)c1cc(NC2CCC(N)C2)n2nccc2n1 (configuration not stated) + CCn1c(-c2cccnc2C(C)OC)c2c3cc(ccc31)N1CCOC(CC(NC(=O)C(C(C)C)N(C)C(=O)C3(F)CCN(C(=O)C#CC(C)(C)N(C)C)CC3)C(=O)N3CCCC(N3)C(=O)OCC(C)(C)C2)C1	viability, T/C	%	106

Recorded viability, T/C for CC(C)NCC(C(=O)N1CCN(c2ncnc3c2C(C)CC3O)CC1)c1ccc(Cl)cc1 (configuration not stated) + CCn1c(-c2cccnc2C(C)OC)c2c3cc(ccc31)N1CCOC(CC(NC(=O)C(C(C)C)N(C)C(=O)C3(F)CCN(C(=O)C#CC(C)(C)N(C)C)CC3)C(=O)N3CCCC(N3)C(=O)OCC(C)(C)C2)C1 , please?
83.6

###

test system: 653999-131-R-J2-PDC complex spheroids, growth inhibition; assay: Anticancer human tumor 653999-131-R-J2-PDC cell line growth inhibition [RAS]; details: second compound 0.0949 µM; first compound 3.16 µM; stronger effect = lower value;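 also: spheroids exposed to the agents for seven days before the readout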
Can you tell me viability, T/C for the items I'm about to list?
Numbers only, in %.

For every record below, what is its viability, T/C?
1. NC1c2ccccc2OC12CCN(c1cnc3c(N4CCCc5ncccc54)n[nH]c3n1)CC2 (stereo not given) + CCn1c(-c2cc(N3CCN(C)CC3)cnc2C(C)OC)c2c3cc(ccc31)-c1csc(n1)CC(NC(=O)C1CC1C)C(=O)N1CCCC(N1)C(=O)OCC(C)(C)C2
2. C[C@@H](NC(=O)c1ncnc(N)c1Cl)c1ncc(C(=O)Nc2cc(C(F)(F)F)c(Cl)cn2)s1 + CCn1c(-c2cccnc2C(C)OC)c2c3cc(ccc31)N1CCOC(CC(NC(=O)C(C(C)C)N(C)C(=O)C3(F)CCN(C(=O)C#CC(C)(C)N(C)C)CC3)C(=O)N3CCCC(N3)C(=O)OCC(C)(C)C2)C1
3. NC1c2ccccc2OC12CCN(c1cnc3c(N4CCCc5ncccc54)n[nH]c3n1)CC2 (stereo not given) + CCn1c(-c2cccnc2C(C)OC)c2c3cc(ccc31)N1CCOC(CC(NC(=O)C(C(C)C)N(C)C(=O)C3(F)CCN(C(=O)C#CC(C)(C)N(C)C)CC3)C(=O)N3CCCC(N3)C(=O)OCC(C)(C)C2)C1

[5.76, 121, 72.1]

###

tested on: 653999-131-R-J2-PDC complex spheroids, growth inhibition; experiment: Anticancer human tumor 653999-131-R-J2-PDC cell line growth inhibition [RAS]; conditions: second compound 1 µM; first compound 10 µM; stronger effect = lower value;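 also: spheroids exposed to the agents for seven days before the readout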
MEASURED_ENDPOINT: viability, T/C (%)
One number for each entry, in %.

Consider the reported viability, T/C for these compounds:
COMPOUND	MEASURED_ENDPOINT	READOUT_UNITS	RESULT_NUMBER
NC1c2ccccc2OC12CCN(c1cnc3c(N4CCCc5ncccc54)n[nH]c3n1)CC2 (stereo not given) + C#Cc1c(F)ccc2cc(O)cc(-c3ncc4c(N5CC6CCC(C5)N6)nc(OCC56CCCN5CC(F)C6)nc4c3F)c12	viability, T/C	%	19.5
CC1(O)CCCC1n1c(=O)c(C(F)F)cc2cnc(NC3CCN(S(C)(=O)=O)CC3)nc21 (stereo not given) + C=CC(=O)N1CCN(c2nc(OCC3CCCN3C)nc3c(F)c(-c4nc(N)cc(C)c4C(F)(F)F)c(Cl)cc23)C(C)C1	viability, T/C	%	38.2
CC(Nc1ccc2c(c1)OCCn1cc(N3C(=O)OCC3C(F)F)nc1-2)C(N)=O (stereo not given) + C#Cc1c(F)ccc2cc(O)cc(-c3ncc4c(N5CC6CCC(C5)N6)nc(OCC56CCCN5CC(F)C6)nc4c3F)c12	viability, T/C	%	11
C[C@@H](NC(=O)c1ncnc(N)c1Cl)c1ncc(C(=O)Nc2cc(C(F)(F)F)c(Cl)cn2)s1 + C#Cc1c(F)ccc2cc(O)cc(-c3ncc4c(N5CC6CCC(C5)N6)nc(OCC56CCCN5CC(F)C6)nc4c3F)c12	viability, T/C	%	54.7

Recorded viability, T/C for NC1c2ccccc2OC12CCN(c1cnc3c(N4CCCc5ncccc54)n[nH]c3n1)CC2 (stereo not given) + C=CC(=O)N1CCN(c2nc(OCC3CCCN3C)nc3c(F)c(-c4nc(N)cc(C)c4C(F)(F)F)c(Cl)cc23)C(C)C1 , please?
66.3
